Data origin: ChEMBL document CHEMBL2150859

- target_under_test: High affinity nerve growth factor receptor (Homo sapiens)
- Sequence (P04629 33-796 limits assumed): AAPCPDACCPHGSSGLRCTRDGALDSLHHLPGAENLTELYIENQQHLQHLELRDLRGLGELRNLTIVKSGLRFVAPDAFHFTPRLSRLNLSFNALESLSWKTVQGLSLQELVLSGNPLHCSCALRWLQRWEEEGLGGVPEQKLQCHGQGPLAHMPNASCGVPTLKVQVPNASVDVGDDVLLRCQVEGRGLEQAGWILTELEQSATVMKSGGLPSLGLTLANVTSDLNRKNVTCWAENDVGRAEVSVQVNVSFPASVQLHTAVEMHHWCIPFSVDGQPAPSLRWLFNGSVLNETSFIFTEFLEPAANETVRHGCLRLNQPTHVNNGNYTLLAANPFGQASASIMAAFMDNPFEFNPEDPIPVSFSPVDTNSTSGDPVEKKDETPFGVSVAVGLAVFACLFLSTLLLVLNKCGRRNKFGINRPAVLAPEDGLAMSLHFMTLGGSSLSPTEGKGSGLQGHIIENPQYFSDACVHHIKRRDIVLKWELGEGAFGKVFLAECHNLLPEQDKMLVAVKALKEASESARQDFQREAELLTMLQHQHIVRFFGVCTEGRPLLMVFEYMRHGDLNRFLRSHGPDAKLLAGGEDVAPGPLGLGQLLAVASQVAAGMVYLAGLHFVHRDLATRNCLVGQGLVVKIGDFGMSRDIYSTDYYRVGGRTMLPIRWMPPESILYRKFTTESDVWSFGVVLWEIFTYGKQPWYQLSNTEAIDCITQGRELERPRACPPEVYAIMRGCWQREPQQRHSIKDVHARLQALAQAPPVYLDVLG
- experiment_notes: Binding affinity to TRKA at 10 uM by high throughput binding assay relative to control
Use 0.8% as the dividing line for Activity, with the line itself on the Criterion met side and lower values as Criterion not met.

Worked cases, answers included:
INSERT INTO measurements (compound_structure, class_name) VALUES
  ('COc1ccc(-c2c[nH]c3ncc(-c4cncc(N)c4)cc23)cc1OC', 'Criterion not met'),
  ('Nc1cccc(-c2cnc3[nH]cc(-c4ccccc4)c3c2)c1', 'Criterion not met'),
  ('N#Cc1cccc(-c2c[nH]c3ncc(-c4cccc(N)c4)cc23)c1', 'Criterion met'),
  ('COc1ccc(-c2c[nH]c3ncc(-c4cccc(N)c4)cc23)cc1OC', 'Criterion met');

Please examine the following record next.
Input: Is it the case that N#Cc1cccc(-c2cnc3[nH]cc(-c4cccc(N)c4)c3c2)c1 has Activity reaching or exceeding 0.8%?
Output: Criterion not met
